# measurement_description: Drug distribution in KM mouse stomach xenografted with human HCT-116 cells measured after 1 hr
# Type: ADME, tissue-based
# condition_details: read-out: Drug uptake

| structure | tissue uptake at 1 h, %ID/g |
| --- | --- |
| [18F]CCOCCOCCOc1nc(-c2ccc(Br)cc2)nc2ccccc12 | 1.75 |

* * *

# measurement_description: Drug distribution in KM mouse liver xenografted with human HCT-116 cells measured after 1 hr block group
# Format: ADME, tissue-based
# condition_details: read-out: Drug uptake

| structure | tissue uptake at 1 h [%ID/g] |
| --- | --- |
| [18F]CCOCCOCCOc1nc(-c2ccc(Br)cc2)nc2ccccc12 | 9.5 |

* * *

# measurement_description: Drug distribution in KM mouse heart xenografted with human HCT-116 cells measured after 1 hr block group
# Format: ADME, tissue-based
# condition_details: read-out: Drug uptake

| structure | tissue uptake at 1 h [%ID/g] |
| --- | --- |
| [18F]CCOCCOCCOc1nc(-c2ccc(Br)cc2)nc2ccccc12 | 5.23 |

* * *

# measurement_description: Drug distribution in KM mouse spleen xenografted with human HCT-116 cells measured after 1 hr
# Type: ADME, tissue-based
# condition_details: read-out: Drug uptake

| structure | tissue uptake at 1 h (%ID/g) |
| --- | --- |
| [18F]CCOCCOCCOc1nc(-c2ccc(Br)cc2)nc2ccccc12 | 6.45 |

* * *

# measurement_description: Drug distribution in KM mouse tumor xenografted with HCT-116 cells measured after 1 hr
# Format: ADME, tissue-based, Neoplasm
# condition_details: read-out: Drug uptake
outcome_measure: tissue uptake at 1 h (%ID/g)

| structure | outcome_measure | number |
| --- | --- | --- |
| [18F]CCOCCOCCOc1nc(-c2ccc(Br)cc2)nc2ccccc12 | tissue uptake at 1 h | 4.76 |

* * *

# measurement_description: Drug distribution in KM mouse bone xenografted with human HCT-116 cells measured after 1 hr block group
# Format: ADME, tissue-based, Bone element
# condition_details: read-out: Drug uptake
outcome_measure: tissue uptake at 1 h (%ID/g)

| structure | number |
| --- | --- |
| [18F]CCOCCOCCOc1nc(-c2ccc(Br)cc2)nc2ccccc12 | 2.44 |

* * *

# measurement_description: Drug accumulation in blood of KM mouse measured after 2 hrs
# Assay type: ADME, tissue-based
# condition_details: read-out: Drug uptake
outcome_measure: tissue uptake at 2 h (%ID/g)

| structure | unit_text | number |
| --- | --- | --- |
| [18F]CCOCCOCCOc1nc(-c2ccc(Br)cc2)nc2ccccc12 | %ID/g | 3.97 |

* * *

# measurement_description: Drug accumulation in intestine of KM mouse measured after 30 mins
# Assay type: ADME, tissue-based
# condition_details: read-out: Drug uptake

| structure | tissue uptake at 0.5 h |
| --- | --- |
| [18F]CCOCCOCCOc1nc(-c2ccc(Br)cc2)nc2ccccc12 | 10.8 %ID/g |

* * *

# Tested on: CYP1A2 versus CYP1B1
# measurement_description: Selectivity ratio of IC50 for inhibition of CYP1A2 (unknown origin) to IC50 for inhibition of CYP1B1 (unknown origin)
# Assay type: ADME
# condition_details: human; read-out: Ratio IC50
Attribute: selectivity ratio
outcome_measure: selectivity ratio

| structure | assay_system | result |
| --- | --- | --- |
| FCCOc1nc(-c2ccc(Br)cc2)nc2ccccc12 | CYP1A2 versus CYP1B1 | > 21.1 |
| FCCOCCOCCOc1nc(-c2ccc(Br)cc2)nc2ccccc12 | CYP1A2 versus CYP1B1 | > 20.7 |
| O=c1[nH]c(-c2ccc(OCCF)cc2)nc2ccccc12 | CYP1A2 versus CYP1B1 | > 20.2 |
